System: PC12 cells
Assay: Veratridine-evoked [^3H]noradrenaline release from PC12 cells
Format: cell-based, rat
Conditions: drug 100 μM; 3 μM rauwolscine present
Result Type: effect on veratridine-induced [^3H]noradrenaline release at 100 μM (in words)

Cc1ccccc1NC(=N)Nc1ccccc1C [DTG, 1,3-di(2-tolyl)guanidine]: inhibited
N=C(N)NCCCCN.O=S(=O)(O)O [Agmatine, agmatine sulfate]: inhibited

The measured values listed here are drawn from patent US20050232860A1.
